Measured pIC50 accompanies every entry in the list below.
# TARGET DESC: Tyro3 tyrosine kinase (Homo sapiens (Human), UniProt Q06418)
# Sequence (Q06418 41-890): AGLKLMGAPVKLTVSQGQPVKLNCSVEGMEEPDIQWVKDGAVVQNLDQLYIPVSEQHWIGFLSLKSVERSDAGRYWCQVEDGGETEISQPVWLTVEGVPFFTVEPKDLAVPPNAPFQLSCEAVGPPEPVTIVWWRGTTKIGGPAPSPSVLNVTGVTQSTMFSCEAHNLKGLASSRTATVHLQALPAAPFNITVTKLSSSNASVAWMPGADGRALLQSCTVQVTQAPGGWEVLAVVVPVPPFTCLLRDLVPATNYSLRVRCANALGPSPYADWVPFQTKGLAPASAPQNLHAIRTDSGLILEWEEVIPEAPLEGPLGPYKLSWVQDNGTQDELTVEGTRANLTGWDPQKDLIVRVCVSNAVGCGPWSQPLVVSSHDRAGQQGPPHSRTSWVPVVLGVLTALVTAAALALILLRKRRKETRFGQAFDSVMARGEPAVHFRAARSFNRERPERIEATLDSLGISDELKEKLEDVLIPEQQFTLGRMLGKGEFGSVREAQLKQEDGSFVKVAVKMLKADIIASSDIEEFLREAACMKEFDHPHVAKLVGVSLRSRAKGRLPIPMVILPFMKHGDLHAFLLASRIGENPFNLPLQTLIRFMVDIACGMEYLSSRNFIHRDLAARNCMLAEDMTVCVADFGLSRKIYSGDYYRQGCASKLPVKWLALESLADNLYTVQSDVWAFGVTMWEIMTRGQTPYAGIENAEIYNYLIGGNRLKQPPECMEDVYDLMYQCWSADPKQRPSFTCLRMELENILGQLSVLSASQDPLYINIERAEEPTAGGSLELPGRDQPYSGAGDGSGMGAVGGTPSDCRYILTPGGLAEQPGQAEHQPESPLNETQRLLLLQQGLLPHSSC
pIC50: −log10 of the molar value.

CCC[C@H](C)Nc1ncc2c(C3CCN(C(=O)[C@H]4CCCCN4)CC3)cn([C@H]3CC[C@H](O)CC3)c2n1 [compound 20] yielded pIC50 of 6.00 to 7.00

Kindly note the recorded pIC50 for CCC[C@H](C)Nc1ncc2c(C3CCN(C(=O)C4CCCN4)CC3)cn([C@H]3CC[C@H](O)CC3)c2n1 (stereo partly shown) [compound 15] , which is 7.00 to 8.00

Lookup result for CCC[C@H](C)Nc1ncc2c(C3CCN(C(=O)[C@H]4CCCNC4)CC3)cn([C@H]3CC[C@H](O)CC3)c2n1 [compound 24] ; measured pIC50: 7.00 to 8.00

The reported value for CCC[C@H](C)Nc1ncc2c(C3CCN(C(=O)CCOC)CC3)cn([C@H]3CC[C@H](O)CC3)c2n1 [compound 9] in terms of pIC50 is 6.00 to 7.00

pIC50 reported for this compound CCC[C@H](C)Nc1ncc2c(C3CCN(C(=O)c4ccc[nH]4)CC3)cn([C@H]3CC[C@H](O)CC3)c2n1 [compound 60] : 6.00 to 7.00

For reference, reported pIC50 for CCC[C@H](C)Nc1ncc2c(C3CCN(C(=O)c4ncc[nH]4)CC3)cn([C@H]3CC[C@H](O)CC3)c2n1 [compound 62] stands at 6.00 to 7.00

Field pIC50 (entry CCC[C@H](C)Nc1ncc2c(C3CCN(C)C3)cn([C@H]3CC[C@H](O)CC3)c2n1 (stereo partly shown) [compound 99] ) reads 6.00 to 7.00

The compound identified as CCC[C@H](C)Nc1ncc2c(C3CCN(C(=O)c4ccc(F)cc4)CC3)cn([C@H]3CC[C@H](O)CC3)c2n1 [compound 89] registered its pIC50 at 6.00 to 7.00

Given item CCC[C@H](C)Nc1ncc2c(C3CCN(S(=O)(=O)C4CCN(C)CC4)CC3)cn([C@H]3CC[C@H](O)CC3)c2n1 [compound 1] , the value recorded as its pIC50 is 7.00 to 8.00

pIC50 for CCC[C@H](C)Nc1ncc2c(C3CCN(C(=O)C4CN(C)C4)CC3)cn([C@H]3CC[C@H](O)CC3)c2n1 [compound 14] is 7.00 to 8.00

Summary for this compound, CCC[C@H](C)Nc1ncc2c(C3CCN(C(=O)c4cc(OC)cc(OC)c4)CC3)cn([C@H]3CC[C@H](O)CC3)c2n1 [compound 80] : pIC50 is 6.00 to 7.00

// pIC50 lookup, compound = CCC[C@H](C)Nc1ncc2c(C3CCN(C(=O)c4cc(C)nc(C)c4)CC3)cn([C@H]3CC[C@H](N)CC3)c2n1 [compound 95] , result: 7.00 to 8.00

Record CCC[C@H](C)Nc1ncc2c(C3CCN(C(=O)C4CCCN4C)CC3)cn([C@H]3CC[C@H](O)CC3)c2n1 (stereo partly shown) [compound 16] . Reported pIC50: 7.00 to 8.00

Field pIC50 (entry CCC[C@H](C)Nc1ncc2c(C3CCN(C(=O)c4ccccc4)CC3)cn([C@H]3CC[C@H](O)CC3)c2n1 [compound 30] ) reads 7.00 to 8.00

So for CCC[C@H](C)Nc1ncc2c(C3CCN(C(=O)c4ccc(CN(C)C)cc4)CC3)cn([C@H]3CC[C@H](O)CC3)c2n1 [compound 87] , the logged pIC50 turned out to be 7.00 to 8.00

Form field pIC50, entry CCC[C@H](C)Nc1ncc2c(C3CCN(C(=O)c4cncs4)CC3)cn([C@H]3CC[C@H](O)CC3)c2n1 [compound 59] : 7.00 to 8.00

Noted for CCCCNc1ncc2c(C3CC4CCC(C3)N4)cn([C@H]3CC[C@H](O)CC3)c2n1 (stereo partly shown) [compound 12] : its pIC50 reads 4.52 to 6.00

Value of measured pIC50 for the entry CCC[C@H](C)Nc1ncc2c(C3CCN(C(=O)[C@@H]4CCCCN4)CC3)cn([C@H]3CC[C@H](O)CC3)c2n1 [compound 19] : 7.00 to 8.00

So for CCC[C@H](C)Nc1ncc2c(C3CCN(S(=O)(=O)C4CCNCC4)CC3)cn([C@H]3CC[C@H](O)CC3)c2n1 [compound 3] , the logged pIC50 turned out to be 7.00 to 8.00
